# log10(MIC) annotations
System: M. tb, strain H37Rv
Test: MABA minimum inhibitory concentration assay (aerobic)
Format: cell-based, Mycobacterium tuberculosis
Settings: Mycobacterium tuberculosis, H37RV, aerobic; read-out: MIC MABA
In our notation, the value equals log10 of MIC in µM.

The cases that follow already have their log10(MIC) on record.
1. CC1(COc2ccc(OCc3ccccc3)cc2)CCn2cc([N+](=O)[O-])nc2O1 (centres unmarked) ... -0.36
2. CC1(COc2cccc(-c3ccc(F)cc3F)n2)CCn2cc([N+](=O)[O-])nc2O1 (centres unmarked) ... -0.16
3. O=[N+]([O-])c1cn2c(n1)OC(COc1ccc(-c3ccc(F)nc3F)nc1)CC2 (centres unmarked) ... 0.08
4. CC1(COc2cccc(-c3ccc(F)nc3)n2)CCn2cc([N+](=O)[O-])nc2O1 (centres unmarked) ... 1.04

Form: Entry = CC1(COc2ccc(-c3ccc(F)nc3F)nc2)CCn2cc([N+](=O)[O-])nc2O1 (centres unmarked) | System = M. tb, strain H37Rv | log10(MIC) = ____ -0.03

Form: Entry = CC1(COc2ncc(-c3ccc(F)cc3)cn2)CCn2cc([N+](=O)[O-])nc2O1 (centres unmarked) | System = M. tb, strain H37Rv | log10(MIC) = ____ -0.36

Form: Entry = CC1(COc2ccc(-c3ccc(F)cn3)cn2)CCn2cc([N+](=O)[O-])nc2O1 (centres unmarked) | System = M. tb, strain H37Rv | log10(MIC) = ____ -0.40

Form: Entry = O=C(OCC1CCn2cc([N+](=O)[O-])nc2O1)N1CCN(c2ccc(F)cc2)CC1 (centres unmarked) | System = M. tb, strain H37Rv | log10(MIC) = ____ 0.40
